Value source: patent US20070088043A1

# Test system: HDAC (Mouse Liver Extract)
# EXPERIMENTAL_DETAILS: Histone Deacetylase (HDAC) Inhibition Assay using Boc-Lys (Ac)-AMC Substrate
# Format: biochemical
# CONDITION_SET: 1 μM; mouse liver enzyme; NA = No Activity; in % (unit assumed)
Please go through the items and note down their HDAC Inhibition 1 μM.
Keep the answer to the number alone.

Entry under review: CC(=O)SCCCCC(=O)N1CCN(CC(=O)Nc2cccc(F)c2)CC1 [Example 23] . Reported HDAC Inhibition 1 μM?
47.2

HDAC Inhibition 1 μM for CC(=O)SCCCCCC(=O)N1CCN(CC(=O)Nc2cccc(F)c2)CC1 [Example 22] ?
6.0

Can you share its HDAC Inhibition 1 μM? I mean this compound: CC(=O)SCCCCC(=O)N1CCN(CC(=O)Nc2nccs2)CC1 [Example 7]
27.76

Item under review: Cc1csc(NC(=O)CN2CCN(C(=O)CCCCCCC(=O)NO)CC2)n1 [Example 33] . Reported HDAC Inhibition 1 μM?
50.09
